study_target: Bfl-1 (Homo sapiens, UniProt Q16548)
Sequence (Q16548 1-151): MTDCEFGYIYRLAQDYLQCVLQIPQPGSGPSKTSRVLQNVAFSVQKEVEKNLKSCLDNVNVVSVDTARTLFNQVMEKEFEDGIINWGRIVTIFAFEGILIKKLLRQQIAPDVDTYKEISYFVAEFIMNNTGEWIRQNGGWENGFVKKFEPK
quantity_measured: IC50 (µM)

O=C(CSc1nnc(-c2ccco2)c(-c2ccco2)n1)Nc1cccc(C(F)(F)F)c1    75.9
c1ccc(CCCCSc2nnc(-c3ccco3)c(-c3ccco3)n2)cc1    5.1
O=C(CSc1nnc(-c2ccco2)c(-c2ccco2)n1)Nc1ccccc1    35.6
CCOc1ccc(C(=O)Nc2cc(NC(=O)c3ccc(OCC)c(Cl)c3)cc(C(=O)O)c2)cc1Cl    2.5
c1ccc(CCCSc2nnc(-c3ccco3)c(-c3ccco3)n2)cc1    11.4

---

study_target: Mcl-1 protein (Homo sapiens)
Sequence (Q07820 171-323): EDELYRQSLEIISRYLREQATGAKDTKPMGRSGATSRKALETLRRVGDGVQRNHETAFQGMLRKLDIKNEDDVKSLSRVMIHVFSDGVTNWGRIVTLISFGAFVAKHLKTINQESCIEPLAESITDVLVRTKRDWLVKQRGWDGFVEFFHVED
Under this convention, criterion met denotes Ki strictly below 2000 nM and criterion not met denotes Ki at or above 2000 nM.

c1ccc(CCSc2nnc(-c3ccco3)c(-c3ccco3)n2)cc1    criterion met
c1ccc(CCCCSc2nnc(-c3ccco3)c(-c3ccco3)n2)cc1    criterion met
O=C(CSc1nnc(-c2ccco2)c(-c2ccco2)n1)Nc1ccc(Oc2ccccc2)cc1    criterion met
CC(C)c1cccc(NC(=O)CSc2nnc(-c3ccco3)c(-c3ccco3)n2)c1    criterion met
O=C(CSc1nnc(-c2ccco2)c(-c2ccco2)n1)Nc1ccc(F)cc1    criterion met
O=C(CSc1nnc(-c2ccccc2)c(-c2ccccc2)n1)Nc1ccccc1    criterion not met
O=C(CSc1nnc(-c2ccco2)c(-c2ccco2)n1)Nc1ccccc1    criterion not met
CC(C)c1ccc(NC(=O)CSc2nnc(-c3ccco3)c(-c3ccco3)n2)cc1    criterion met
O=C(CSc1nnc(-c2ccco2)c(-c2ccco2)n1)Nc1ccc(-c2ccccc2)cc1    criterion met
O=C(CSc1nnc(-c2ccco2)c(-c2ccco2)n1)Nc1ccccc1-c1ccccc1    criterion met
O=C(CSc1nnc(-c2ccco2)c(-c2ccco2)n1)Nc1cccc(-c2ccccc2)c1    criterion met
c1ccc(CCCSc2nnc(-c3ccco3)c(-c3ccco3)n2)cc1    criterion met
O=C(CSc1nnc(-c2ccccn2)c(-c2ccccn2)n1)Nc1ccccc1    criterion not met
Nc1ccc(NC(=O)CSc2nnc(-c3ccco3)c(-c3ccco3)n2)cc1    criterion not met
O=C(Nc1ccccc1)c1ccc2nc(-c3ccco3)c(-c3ccco3)nc2c1    criterion not met
COc1ccc(NC(=O)CSc2nnc(-c3ccco3)c(-c3ccco3)n2)cc1    criterion not met
Cc1ccc(NC(=O)c2ccc3nc(-c4ccco4)c(-c4ccco4)nc3c2)cc1    criterion not met
O=C(CSc1nnc(-c2cccs2)c(-c2cccs2)n1)Nc1ccccc1    criterion not met

---

study_target: Bcl-xL (Homo sapiens, UniProt Q07817, DEL45-85)
Construct: His tag (pHis-TEV vector) (N, cleaved yes)
Sequence (Q07817 with tags, fused parts or gaps DEL45-85 limits assumed): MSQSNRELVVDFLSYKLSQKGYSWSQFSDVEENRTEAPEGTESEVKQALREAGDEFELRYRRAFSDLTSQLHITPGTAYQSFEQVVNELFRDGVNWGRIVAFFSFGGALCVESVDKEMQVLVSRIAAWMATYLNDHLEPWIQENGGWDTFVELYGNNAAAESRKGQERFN
test_summary: FP-based competitive binding assay with FAM-Bid
conditions_used: FP
In this section we review reported IC50 values for a set of molecules.
quantity_measured: IC50

c1ccc(CCCCSc2nnc(-c3ccco3)c(-c3ccco3)n2)cc1    > 100 µM
O=C(CSc1nnc(-c2ccco2)c(-c2ccco2)n1)Nc1cccc(C(F)(F)F)c1    > 100 µM
c1ccc(CCCSc2nnc(-c3ccco3)c(-c3ccco3)n2)cc1    > 100 µM
O=C(CSc1nnc(-c2ccco2)c(-c2ccco2)n1)Nc1ccccc1    > 100 µM
